Molecular target: CaAbp1-D1
Assay: SPOT peptide array binding signal intensity (averaged, normalized) (arbitrary units (background-subtracted, floor 0; scale differs between SH3 domains)); higher = stronger binding of the SH3 domain to the peptide
Use 200 as the dividing line for SPOT peptide array binding signal intensity, with the line itself on the Satisfied side and lower values as Not satisfied.

Would you please look over these solved cases?
RLPAPPPPPRRGPAP	Not satisfied
RNNRPVPPPPPMRTT	Not satisfied
RSKRLFPVRPMATAH	Satisfied
APERAVPILPPRNNV	Not satisfied
NQARKPFLLPATELS	Satisfied

Task item: Check this binder for SPOT peptide array binding signal intensity at or above 200: GQYRRTIVIPRRFFT
Reply: Not satisfied

Task item: Check this binder for SPOT peptide array binding signal intensity at or above 200: MAMRPIPPLPTESEY
Reply: Not satisfied
